All figures here come from ChEMBL document CHEMBL1127698.

target: UniProtKB P08254
Sequence (P08254 whole entry): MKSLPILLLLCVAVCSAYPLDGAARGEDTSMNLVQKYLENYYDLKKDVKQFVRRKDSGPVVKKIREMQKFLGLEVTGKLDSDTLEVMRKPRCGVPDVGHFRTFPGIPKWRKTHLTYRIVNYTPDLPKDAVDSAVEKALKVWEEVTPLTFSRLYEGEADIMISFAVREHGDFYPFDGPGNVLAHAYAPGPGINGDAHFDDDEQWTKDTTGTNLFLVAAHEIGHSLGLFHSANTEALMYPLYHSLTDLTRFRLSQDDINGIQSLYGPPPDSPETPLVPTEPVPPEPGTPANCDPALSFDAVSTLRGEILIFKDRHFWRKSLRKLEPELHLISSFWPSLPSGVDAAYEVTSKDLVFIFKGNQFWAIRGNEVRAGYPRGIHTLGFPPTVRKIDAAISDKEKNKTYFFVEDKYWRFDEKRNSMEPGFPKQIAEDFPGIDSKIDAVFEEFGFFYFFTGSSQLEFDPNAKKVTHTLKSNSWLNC
Label key: 1.0 means IC50 under 3000 nM; 0.0 means IC50 of 3000 nM or more.

stdin: Please let me know if CC(C)C[C@H](N[C@H](CCN1C(=O)c2cc3ccccc3cc2C1=O)C(=O)O)C(=O)NCc1ccccc1 shows IC50 below 3000 nM.
stdout: 1.0

stdin: Please let me know if CC(C)C[C@H](N[C@H](CCN1C(=O)c2cc3ccccc3cc2C1=O)C(=O)O)C(=O)N1CCCC1c1cccnc1 (stereo in doubt; 75) shows IC50 below 3000 nM.
stdout: 1.0

stdin: Please let me know if CC(C)C[C@H](N[C@H](CCN1C(=O)c2cc3ccccc3cc2C1=O)C(=O)O)C(=O)N1CCN(C)CC1 shows IC50 below 3000 nM.
stdout: 1.0

stdin: Please let me know if CC(C)C[C@H](N[C@H](CCN1C(=O)c2cc3ccccc3cc2C1=O)C(=O)O)C(=O)N(C)C shows IC50 below 3000 nM.
stdout: 0.0
